test system: 292921-168-R-J2-PDC complex spheroid viability; assay: Anticancer human tumor 292921-168-R-J2-PDC patient-derived pancreatic carcinoma cell line growth inhibition; settings: second compound 0.316 µM; first compound 3.16 µM; stronger effect = lower value
quantityKind: viability, T/C (%)
State the answer as a number, implicitly in %.

CC1(C)CCC(CN2CCN(c3ccc(C(=O)NS(=O)(=O)c4ccc(NCC5CCOCC5)c([N+](=O)[O-])c4)c(Oc4cnc5[nH]ccc5c4)c3)CC2)=C(c2ccc(Cl)cc2)C1 + NC1CCC(NC2CC2c2ccccc2)CC1; 15.8
CC1COCCN1c1cc(C2(S(C)(=N)=O)CC2)nc(-c2ccnc3[nH]ccc23)n1 (stereo not drawn) + NC1CCC(NC2CC2c2ccccc2)CC1; 14.3

If you can, please state the reported viability, T/C value of CC(C)c1c(-c2ccccc2)nc2c(C#N)c[nH]n2c1=O + NC1CC1c1ccc(-c2cccc(O)c2)cc1 .
71.4

====

test system: 292921-168-R-J2-PDC complex spheroid viability; test: Anticancer human tumor 292921-168-R-J2-PDC cell line growth inhibition; details: curve of compound;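 note: seven day compound exposure before luminescent viability read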
quantityKind: IC50

These recorded examples may help you get a feel for the data.
CC(C)c1c(-c2ccccc2)nc2c(C#N)c[nH]n2c1=O; > 10000 nM
CCc1c2c(nc3ccc(O)cc13)-c1cc3c(c(=O)n1C2)COC(=O)[C@]3(O)CC; < 0.949 nM
CC(C)CC(NC(=O)C(Cc1ccccc1)NC(=O)c1cnccn1)B(O)O (stereo not drawn); < 0.316 nM
CC1COCCN1c1cc(-c2ccnn2C)c2ccnc(-c3ccn[nH]3)c2n1 (stereo not drawn); < 3.16 nM
Cn1ncnc1C1c2n[nH]c(=O)c3cc(F)cc(c23)NC1c1ccc(F)cc1 (stereo not drawn); > 100 nM

Suppose we examine the compound Nc1ccn(C2OC(CO)C(O)C2(F)F)c(=O)n1 (stereo not drawn) ; what IC50 value has been reported?
< 0.949 nM

Given the compound COc1cc(Nc2ncc3c(n2)-c2ccc(Cl)cc2C(c2c(F)cccc2OC)=NC3)ccc1C(=O)O , what is its reported IC50?
< 3.16 nM

What does the data say about its IC50? Entry: Nc1ncn(C2CC(O)C(CO)O2)c(=O)n1 (stereo not drawn)
> 1000 nM

====

test system: 292921-168-R-J2-PDC complex spheroid viability; assay: Anticancer human tumor 292921-168-R-J2-PDC cell line growth inhibition; details: second compound 3.16 µM; first compound 0.00949 µM; active = viability on the fitted dose curve at most 10% of control; inactive = the rest;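 note: seven day compound exposure before luminescent viability read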
Can you answer with just one of these options? active, inactive

Completed entries (count: 10):
Nc1ncn(C2CC(O)C(CO)S2)c(=O)n1 (stereo unspecified) + NC1CC1c1ccc(-c2cccc(O)c2)cc1; inactive
COc1cc(C2c3cc4c(cc3C(OC3OC5COC(C)OC5C(O)C3O)C3COC(=O)C23)OCO4)cc(OC)c1O (stereo unspecified) + NC1CC1c1ccc(-c2cccc(O)c2)cc1; inactive
CCc1c2c(nc3ccc(O)cc13)-c1cc3c(c(=O)n1C2)COC(=O)[C@]3(O)CC + NC1CCC(NC2CC2c2ccccc2)CC1; active
Nc1ccccc1NC(=O)c1ccc(CNC(=O)OCc2cccnc2)cc1 + NC1CC1c1ccc(-c2cccc(O)c2)cc1; inactive
Nc1ncn(C2CC(O)C(CO)S2)c(=O)n1 (stereo unspecified) + NC1CCC(NC2CC2c2ccccc2)CC1; inactive
CCc1c2c(nc3ccc(O)cc13)-c1cc3c(c(=O)n1C2)COC(=O)[C@]3(O)CC + NC1CC1c1ccc(-c2cccc(O)c2)cc1; active
NS(=O)(=O)OCC1CC(n2ccc3c(NC4CCc5ccccc54)ncnc32)CC1O (stereo unspecified) + NC1CC1c1ccc(-c2cccc(O)c2)cc1; inactive
CCN(c1cc(-c2ccc(CN3CCOCC3)cc2)cc(C(=O)NCc2c(C)cc(C)[nH]c2=O)c1C)C1CCOCC1 + NC1CC1c1ccc(-c2cccc(O)c2)cc1; inactive
CCN(c1cc(-c2ccc(CN3CCOCC3)cc2)cc(C(=O)NCc2c(C)cc(C)[nH]c2=O)c1C)C1CCOCC1 + NC1CCC(NC2CC2c2ccccc2)CC1; inactive
Nc1ccn(C2OC(CO)C(O)C2(F)F)c(=O)n1 (stereo unspecified) + NC1CCC(NC2CC2c2ccccc2)CC1; active

Entry O=C(C=Cc1cccc(S(=O)(=O)Nc2ccccc2)c1)NO + NC1CCC(NC2CC2c2ccccc2)CC1 : call = ?
inactive

In this assay, the call recorded for O=C(C=Cc1cccc(S(=O)(=O)Nc2ccccc2)c1)NO + NC1CC1c1ccc(-c2cccc(O)c2)cc1 was what?
inactive

Could you please tell me the result logged for NS(=O)(=O)OCC1CC(n2ccc3c(NC4CCc5ccccc54)ncnc32)CC1O (stereo unspecified) + NC1CCC(NC2CC2c2ccccc2)CC1 in this assay?
inactive

Fill in: this test's call for Nc1ccccc1NC(=O)c1ccc(CNC(=O)OCc2cccnc2)cc1 + NC1CCC(NC2CC2c2ccccc2)CC1 is ___
inactive

Write down the call the test reported for this compound. Item: Nc1ccn(C2OC(CO)C(O)C2(F)F)c(=O)n1 (stereo unspecified) + NC1CC1c1ccc(-c2cccc(O)c2)cc1
active

Recorded test call requested for COc1cc(C2c3cc4c(cc3C(OC3OC5COC(C)OC5C(O)C3O)C3COC(=O)C23)OCO4)cc(OC)c1O (stereo unspecified) + NC1CCC(NC2CC2c2ccccc2)CC1
inactive

====

Test system: 292921-168-R-J2-PDC complex spheroid viability
Experiment: Anticancer human tumor 292921-168-R-J2-PDC cell line growth inhibition; active = viability on the fitted dose curve at most 10% of control; inactive = the rest;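 note: seven day compound exposure before luminescent viability read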
Conditions: second compound 10 µM; first compound 0.001 µM
From the text: Multicellular complex tumor spheroid response to LSD1 Inhibitor Iadademstat in combination with a variety of drugs and investigational agents in selected tumor cell lines The current study was undertaken to assess response to LSD1 inhibitors in combination with standard-of-care drugs and investigational agents in solid tumor complex spheroid models as well as in the K-562 leukemia. […] Compounds. […] If the clinical Cmax for an agent had not been determined, the highest concentration tested was 10 microM. […]
Tick one outcome: active, inactive

Called result for CC[C@@]1(O)C(=O)OCc2c1cc1n(c2=O)Cc2cc3c(CN(C)C)c(O)ccc3nc2-1 + NC1CC1c1ccc(-c2cccc(O)c2)cc1
inactive

// return assay outcome for CC(C)CC(NC(=O)C(Cc1ccccc1)NC(=O)c1cnccn1)B(O)O (stereo not drawn) + NC1CC1c1ccc(-c2cccc(O)c2)cc1
active

Tell me the recorded outcome of this test for CC[C@@]1(O)C(=O)OCc2c1cc1n(c2=O)Cc2cc3c(CN(C)C)c(O)ccc3nc2-1 + NC1CCC(NC2CC2c2ccccc2)CC1 .
inactive

====

test system: 292921-168-R-J2-PDC complex spheroid viability; test: Anticancer human tumor 292921-168-R-J2-PDC cell line growth inhibition; conditions: second compound 10 µM; first compound 0.316 µM; stronger effect = lower value;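 note: seven day compound exposure before luminescent viability read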;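 for viability, T/C: 100% = DMSO vehicle control wells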
Listing: viability, T/C of selected compounds
Report as a plain number; the unit % is understood.

CC1COCCN1c1cc(-c2ccnn2C)c2ccnc(-c3ccn[nH]3)c2n1 (configuration not stated) + NC1CCC(NC2CC2c2ccccc2)CC1; 14.2
CC1(C)CCC(CN2CCN(c3ccc(C(=O)NS(=O)(=O)c4ccc(NCC5CCOCC5)c([N+](=O)[O-])c4)c(Oc4cnc5[nH]ccc5c4)c3)CC2)=C(c2ccc(Cl)cc2)C1 + NC1CCC(NC2CC2c2ccccc2)CC1; 66.4
O=C(C=Cn1cnc(-c2cc(C(F)(F)F)cc(C(F)(F)F)c2)n1)NNc1cnccn1 + NC1CCC(NC2CC2c2ccccc2)CC1; 9.15
O=C(c1cc(Cc2n[nH]c(=O)c3ccccc23)ccc1F)N1CCN(C(=O)C2CC2)CC1 + NC1CCC(NC2CC2c2ccccc2)CC1; 54.4
CC(C)c1c(-c2ccccc2)nc2c(C#N)c[nH]n2c1=O + NC1CC1c1ccc(-c2cccc(O)c2)cc1; 58.4
COc1ccc([C@@H](O)c2cc(-c3ncnc4cc(N5CCOCC5)ccc34)c(F)cc2Cl)nn1 + NC1CCC(NC2CC2c2ccccc2)CC1; 36.2

# context switch: different compound, same viability, T/C
Need viability, T/C, item Nc1ncn(C2CC(O)C(CO)O2)c(=O)n1 (configuration not stated) + NC1CC1c1ccc(-c2cccc(O)c2)cc1
45.4

====

Measured viability, T/C values are reported for all entries that follow.
tested on: 292921-168-R-J2-PDC complex spheroid viability; experiment: Anticancer human tumor 292921-168-R-J2-PDC cell line growth inhibition; settings: second compound 0.1 µM; first compound 0.00949 µM; stronger effect = lower value;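 note: seven day compound exposure before luminescent viability read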;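 for viability, T/C: 100% = DMSO vehicle control wells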

Below are worked cases with known answers.
NS(=O)(=O)OCC1CC(n2ccc3c(NC4CCc5ccccc54)ncnc32)CC1O (stereo unspecified) + NC1CCC(NC2CC2c2ccccc2)CC1; 83.8%
Nc1ncn(C2CC(O)C(CO)S2)c(=O)n1 (stereo unspecified) + NC1CCC(NC2CC2c2ccccc2)CC1; 63.2%
COc1cc(C2c3cc4c(cc3C(OC3OC5COC(C)OC5C(O)C3O)C3COC(=O)C23)OCO4)cc(OC)c1O (stereo unspecified) + NC1CC1c1ccc(-c2cccc(O)c2)cc1; 84.3%
Nc1ccccc1NC(=O)c1ccc(CNC(=O)OCc2cccnc2)cc1 + NC1CC1c1ccc(-c2cccc(O)c2)cc1; 60.9%
CCN(c1cc(-c2ccc(CN3CCOCC3)cc2)cc(C(=O)NCc2c(C)cc(C)[nH]c2=O)c1C)C1CCOCC1 + NC1CCC(NC2CC2c2ccccc2)CC1; 67.3%

Form field: viability, T/C recorded for CCc1c2c(nc3ccc(O)cc13)-c1cc3c(c(=O)n1C2)COC(=O)[C@]3(O)CC + NC1CC1c1ccc(-c2cccc(O)c2)cc1 with 292921-168-R-J2-PDC complex spheroid viability (enter value)
1.33%

Find viability, T/C (292921-168-R-J2-PDC complex spheroid viability) for the entry Nc1ccn(C2OC(CO)C(O)C2(F)F)c(=O)n1 (stereo unspecified) + NC1CCC(NC2CC2c2ccccc2)CC1
8.07%

Form: Entry = NS(=O)(=O)OCC1CC(n2ccc3c(NC4CCc5ccccc54)ncnc32)CC1O (stereo unspecified) + NC1CC1c1ccc(-c2cccc(O)c2)cc1 | System = 292921-168-R-J2-PDC complex spheroid viability | viability, T/C = ____
87.4%

Param readout= viability, T/C; system= 292921-168-R-J2-PDC complex spheroid viability; entry= Nc1ccccc1NC(=O)c1ccc(CNC(=O)OCc2cccnc2)cc1 + NC1CCC(NC2CC2c2ccccc2)CC1 ; returns value.
61.3%

For 292921-168-R-J2-PDC complex spheroid viability, provide viability, T/C of CCN(c1cc(-c2ccc(CN3CCOCC3)cc2)cc(C(=O)NCc2c(C)cc(C)[nH]c2=O)c1C)C1CCOCC1 + NC1CC1c1ccc(-c2cccc(O)c2)cc1 please.
77.2%

Recorded viability, T/C for O=C(C=Cc1cccc(S(=O)(=O)Nc2ccccc2)c1)NO + NC1CC1c1ccc(-c2cccc(O)c2)cc1 with 292921-168-R-J2-PDC complex spheroid viability, please?
59.3%

Write down the reported viability, T/C of Nc1ncn(C2CC(O)C(CO)S2)c(=O)n1 (stereo unspecified) + NC1CC1c1ccc(-c2cccc(O)c2)cc1 , test system: 292921-168-R-J2-PDC complex spheroid viability.
73.2%

Item Nc1ccn(C2OC(CO)C(O)C2(F)F)c(=O)n1 (stereo unspecified) + NC1CC1c1ccc(-c2cccc(O)c2)cc1 with 292921-168-R-J2-PDC complex spheroid viability - viability, T/C?
6.54%

Param readout= viability, T/C; system= 292921-168-R-J2-PDC complex spheroid viability; entry= COc1cc(C2c3cc4c(cc3C(OC3OC5COC(C)OC5C(O)C3O)C3COC(=O)C23)OCO4)cc(OC)c1O (stereo unspecified) + NC1CCC(NC2CC2c2ccccc2)CC1 ; returns value.
62.7%

Notebook: pull reported viability, T/C for 292921-168-R-J2-PDC complex spheroid viability, entry O=C(C=Cc1cccc(S(=O)(=O)Nc2ccccc2)c1)NO + NC1CCC(NC2CC2c2ccccc2)CC1
44%

API: value(readout= viability, T/C, system= 292921-168-R-J2-PDC complex spheroid viability, query= CCc1c2c(nc3ccc(O)cc13)-c1cc3c(c(=O)n1C2)COC(=O)[C@]3(O)CC + NC1CCC(NC2CC2c2ccccc2)CC1 )
1.77%
